- System: T. brucei
- Test Summary: Growth inhibition assay of T. brucei cell cultures (Alamar Blue, 48 h)
- Assay type: cell-based
- Condition Info: Trypanosoma brucei; read-out: B) T. brucei EC50
pEC50: −log10 of the molar value.
Listing of recorded pEC50 by entry.
Observed Property: pEC50

compound="CC(=O)N(Cc1cc(Cl)cc(Cl)c1)C1CCCC(c2nc3ncccc3[nH]2)C1 (centres unmarked) [Compound 1818]" relation_qualifier=< endpoint_value=4.70
compound="O=C(Cc1cc(Cl)cc(Cl)c1)NCc1nc2ccc(Cl)cc2[nH]1 [Compound 1851]" relation_qualifier== endpoint_value=5.47
compound="O=C(Cc1cc(Cl)cc(Cl)c1)N1CCCC(c2nc3nc(F)ccc3[nH]2)C1 (centres unmarked) [Compound 1761]" relation_qualifier== endpoint_value=6.00
compound="O=C(CCOc1ccc(Cl)cc1Cl)NCc1nc2ccccc2[nH]1 [Compound 1683]" relation_qualifier== endpoint_value=5.05
compound="Clc1cc(Cl)cc(CN2CCC[C@H](c3nc4nc(Cl)ccc4[nH]3)C2)c1 [Compound 1868]" relation_qualifier== endpoint_value=5.97
compound="O=C(Cc1ccc(Cl)cc1Cl)NCc1nc2ccc(Br)cc2[nH]1 [Compound 1874]" relation_qualifier== endpoint_value=5.44
compound="CC(=O)N(Cc1cc(Cl)cc(Cl)c1)C1CCCC(c2nc3cc(Cl)cnc3[nH]2)C1 (centres unmarked) [Compound 1842]" relation_qualifier== endpoint_value=5.07
compound="CC[C@@H](Cc1nc2ccc(Cl)cc2[nH]1)NCc1cc(Cl)cc(Cl)c1 [Compound 1827]" relation_qualifier== endpoint_value=5.30

----------
- System: T. brucei
- Test Summary: Growth inhibition assay of T. brucei cell cultures (Alamar Blue, 48 h)
- Assay type: cell-based
- Condition Info: Trypanosoma brucei; read-out: B) T. brucei EC50
pEC50: −log10 of the molar value.
The label depends only on pEC50: 1.0 if it is at least 6, 0.0 if it is smaller.

molecule="O=C(Cc1ccc(Cl)cc1Cl)N1CCCC(c2nc3ccccc3[nH]2)C1 (centres unmarked)" target_or_system="T. brucei" category=0.0
molecule="O=C(Cc1cc(Cl)cc(Cl)c1)N1CCOC(c2nc3nc(Cl)ccc3[nH]2)C1 (centres unmarked)" target_or_system="T. brucei" category=0.0
molecule="Clc1cc(Cl)cc(CNCC2CCN2c2nc3nc(Cl)ccc3[nH]2)c1 (centres unmarked)" target_or_system="T. brucei" category=0.0
molecule=O=C(CCNCc1cc(Cl)cc(Cl)c1)Nc1nc2ncccc2[nH]1 target_or_system="T. brucei" category=1.0
molecule=Clc1cc(Cl)cc(NC[C@@H]2CCCN(c3nc4nc(Cl)ccc4[nH]3)C2)c1 target_or_system="T. brucei" category=1.0
molecule="Clc1cc(Cl)cc(CN2CCCC(Cc3nc4nc(Cl)ccc4[nH]3)C2)c1 (centres unmarked)" target_or_system="T. brucei" category=0.0
molecule="O=C(Nc1cc(Cl)cc(Cl)c1)N1CCCC(c2nc3cc(Cl)ccc3[nH]2)C1 (centres unmarked)" target_or_system="T. brucei" category=0.0
molecule="Fc1ccc2[nH]c(N3CCCC(NCc4cc(Cl)cc(Cl)c4)C3)nc2n1 (centres unmarked)" target_or_system="T. brucei" category=1.0
molecule=O=C(NCc1nc2nc(Cl)ccc2[nH]1)Nc1ccc(Cl)cc1Cl target_or_system="T. brucei" category=0.0
molecule=CN(Cc1nc2ccccc2[nH]1)C(=O)OCCc1ccc(Cl)cc1Cl target_or_system="T. brucei" category=0.0
molecule="Clc1cc(Cl)cc(CNC2CCCC(c3nc4ccccc4[nH]3)C2)c1 (centres unmarked)" target_or_system="T. brucei" category=0.0
molecule=O=C(CNc1nc2ccc(Cl)nc2[nH]1)NCc1cc(Cl)cc(Cl)c1 target_or_system="T. brucei" category=0.0
molecule="CC(=O)N(Cc1ccc(Cl)cc1Cl)C1CCCC(c2nc3nc(F)ccc3[nH]2)C1 (centres unmarked)" target_or_system="T. brucei" category=0.0
molecule=CN(Cc1nc2ccccc2[nH]1)C(=O)CCOc1ccc(Cl)cc1Cl target_or_system="T. brucei" category=0.0
molecule=CCOc1c(Br)cc(Br)cc1CN[C@H]1CCCN(c2nc3nc(Cl)ccc3[nH]2)C1 target_or_system="T. brucei" category=1.0
molecule="NC(CC(=O)NCc1cc(Cl)cc(Cl)c1)c1nc2ccc(Cl)nc2[nH]1 (centres unmarked)" target_or_system="T. brucei" category=0.0
molecule="Clc1cc(Cl)cc(CNC2CCCC(c3nc4ncccc4[nH]3)C2)c1 (centres unmarked)" target_or_system="T. brucei" category=0.0
molecule=Clc1cc(Cl)cc(CN[C@@H]2CCN(c3nc4ccc(Cl)nc4[nH]3)C2)c1 target_or_system="T. brucei" category=0.0
molecule=O=C(NCCc1ccc(Cl)cc1Cl)OCc1nc2ccccc2[nH]1 target_or_system="T. brucei" category=0.0
molecule=Clc1cc(Cl)cc(CNC2CN(c3nc4nc(Cl)ccc4[nH]3)C2)c1 target_or_system="T. brucei" category=0.0
molecule=N[C@H](CC(=O)NCc1nc2ccccc2[nH]1)Cc1ccc(Cl)cc1Cl target_or_system="T. brucei" category=0.0
molecule="CC(Cc1nc2ccc(Br)cc2[nH]1)NCc1cc(Cl)cc(Cl)c1 (centres unmarked)" target_or_system="T. brucei" category=0.0
molecule=CC(C)(CNCc1cc(Cl)cc(Cl)c1)CNc1nc2cccnc2[nH]1 target_or_system="T. brucei" category=0.0
molecule="Clc1cc(Cl)cc(CNC2CCCC(c3nc4cc(Cl)cnc4[nH]3)C2)c1 (centres unmarked)" target_or_system="T. brucei" category=0.0
molecule=O=C(COc1ccc(Cl)cc1Cl)NCc1cc2ccccc2[nH]1 target_or_system="T. brucei" category=0.0
molecule=O=c1[nH]c(Cc2ccc(Cl)cc2Cl)cn1Cc1nc2ccccc2[nH]1 target_or_system="T. brucei" category=1.0
molecule=COc1ccc(Oc2cccc(NCc3nc4ccccc4[nH]3)n2)c(Cl)c1 target_or_system="T. brucei" category=0.0
molecule=C[C@@H](Cc1nc2ccc(Cl)cc2[nH]1)NCc1cc(Cl)cc(Cl)c1 target_or_system="T. brucei" category=0.0
molecule=Clc1cc(Cl)cc(CNCCCNc2nc3ncccc3[nH]2)c1 target_or_system="T. brucei" category=1.0
molecule=CNCc1cc(Cl)cc(Cl)c1O/C=C/C(=O)NCc1nc2ccccc2[nH]1 target_or_system="T. brucei" category=0.0
molecule=COc1ccc(Oc2cccc(NCc3nc4ccccc4[nH]3)c2)c(Cl)c1 target_or_system="T. brucei" category=0.0
molecule=O=C(NCCc1ccc(Cl)cc1Cl)NCc1nc2ccccc2[nH]1 target_or_system="T. brucei" category=0.0

----------
- Target Or System: MetRS (T. brucei) (Trypanosoma brucei brucei, UniProt Q38C91)
- Sequence (Q38C91 entry or part of it): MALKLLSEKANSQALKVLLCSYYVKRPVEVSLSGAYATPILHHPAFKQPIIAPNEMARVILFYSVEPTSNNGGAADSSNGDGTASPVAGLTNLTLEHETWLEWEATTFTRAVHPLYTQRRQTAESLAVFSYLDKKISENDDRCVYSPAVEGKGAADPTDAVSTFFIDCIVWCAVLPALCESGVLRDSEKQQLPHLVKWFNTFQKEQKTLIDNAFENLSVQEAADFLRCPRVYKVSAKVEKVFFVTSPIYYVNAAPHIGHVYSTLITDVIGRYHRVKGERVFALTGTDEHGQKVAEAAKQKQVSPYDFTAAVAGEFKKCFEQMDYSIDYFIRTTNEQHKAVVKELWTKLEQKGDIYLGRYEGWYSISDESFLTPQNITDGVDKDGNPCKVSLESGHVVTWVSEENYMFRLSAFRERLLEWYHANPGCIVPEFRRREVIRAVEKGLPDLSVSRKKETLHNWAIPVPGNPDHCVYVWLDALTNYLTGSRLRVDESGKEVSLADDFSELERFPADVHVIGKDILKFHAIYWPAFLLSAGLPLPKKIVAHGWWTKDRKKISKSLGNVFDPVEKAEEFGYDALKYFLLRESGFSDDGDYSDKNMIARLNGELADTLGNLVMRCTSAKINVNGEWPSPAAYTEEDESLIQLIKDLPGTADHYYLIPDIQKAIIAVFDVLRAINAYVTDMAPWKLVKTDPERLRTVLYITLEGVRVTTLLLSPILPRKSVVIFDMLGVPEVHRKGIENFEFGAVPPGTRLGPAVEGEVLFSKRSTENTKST
Observed Property: log10 of IC50 (log10 of the value in nM)

compound=Clc1cc(Cl)cc(CN[C@H]2CCCN(c3nc4nc(Cl)ccc4[nH]3)C2)c1 target_or_system="MetRS (T. brucei) (Trypanosoma brucei brucei, UniProt Q38C91)" observed_property="log10 of IC50" endpoint_value=1.28
compound=O=C(NCc1nc2ccc(F)nc2[nH]1)OCCc1ccc(Cl)cc1Cl target_or_system="MetRS (T. brucei) (Trypanosoma brucei brucei, UniProt Q38C91)" observed_property="log10 of IC50" endpoint_value=1.41
compound=CC(=O)N(CCN(C)c1nc2nc(Cl)ccc2[nH]1)[C@@H]1CCNc2c(Cl)cc(Cl)cc21 target_or_system="MetRS (T. brucei) (Trypanosoma brucei brucei, UniProt Q38C91)" observed_property="log10 of IC50" endpoint_value=1.56
compound="O=C(Cc1cc(Cl)cc(Cl)c1)N1CCCC(c2nc3c(Cl)cccc3[nH]2)C1 (stereo not drawn)" target_or_system="MetRS (T. brucei) (Trypanosoma brucei brucei, UniProt Q38C91)" observed_property="log10 of IC50" endpoint_value=2.97
compound="Clc1cc(Cl)cc(CNC2CCCC(c3nc4nc(Cl)ccc4[nH]3)C2)c1 (stereo not drawn)" target_or_system="MetRS (T. brucei) (Trypanosoma brucei brucei, UniProt Q38C91)" observed_property="log10 of IC50" endpoint_value=2.09
compound="O=C(Cc1cc(Cl)cc(Cl)c1)N1CCCC(c2nc3nc(Cl)ccc3[nH]2)C1 (stereo not drawn)" target_or_system="MetRS (T. brucei) (Trypanosoma brucei brucei, UniProt Q38C91)" observed_property="log10 of IC50" endpoint_value=1.45
compound=O=C(CO)N(CCCNc1nc2ccc(F)nc2[nH]1)Cc1cc(Cl)cc(Cl)c1 target_or_system="MetRS (T. brucei) (Trypanosoma brucei brucei, UniProt Q38C91)" observed_property="log10 of IC50" endpoint_value=1.04
compound=COc1ccc(Oc2cc(NCc3nc4ccc(F)nc4[nH]3)nc(Cl)n2)c(Cl)c1 target_or_system="MetRS (T. brucei) (Trypanosoma brucei brucei, UniProt Q38C91)" observed_property="log10 of IC50" endpoint_value=1.23
compound=N#Cc1cc(Cl)cc(CN[C@H]2CCCN(c3nc4nc(Cl)ccc4[nH]3)C2)c1 target_or_system="MetRS (T. brucei) (Trypanosoma brucei brucei, UniProt Q38C91)" observed_property="log10 of IC50" endpoint_value=1.15
compound=Fc1ccc2nc(NCCCNc3ccc(Cl)cc3Cl)[nH]c2n1 target_or_system="MetRS (T. brucei) (Trypanosoma brucei brucei, UniProt Q38C91)" observed_property="log10 of IC50" endpoint_value=2.51
compound=COc1ccc(Oc2cccc(NCc3nc4ccccc4[nH]3)n2)c(Cl)c1 target_or_system="MetRS (T. brucei) (Trypanosoma brucei brucei, UniProt Q38C91)" observed_property="log10 of IC50" endpoint_value=2.22
compound="Clc1cc(Cl)cc(CNC2CCCN(c3nc4nc(Cl)ccc4[nH]3)C2)c1 (stereo not drawn)" target_or_system="MetRS (T. brucei) (Trypanosoma brucei brucei, UniProt Q38C91)" observed_property="log10 of IC50" endpoint_value=0.90
compound=CN(CCN(Cc1cc(Cl)cc(Cl)c1)C(=O)CN)c1nc2nc(Cl)ccc2[nH]1 target_or_system="MetRS (T. brucei) (Trypanosoma brucei brucei, UniProt Q38C91)" observed_property="log10 of IC50" endpoint_value=1.04
compound=O=C(/C=C\Oc1ccc(Cl)cc1Cl)NCc1nc2ccccc2[nH]1 target_or_system="MetRS (T. brucei) (Trypanosoma brucei brucei, UniProt Q38C91)" observed_property="log10 of IC50" endpoint_value=2.15
compound=CN(CCN(Cc1cc(Cl)cc(Cl)c1)C(=O)CO)c1nc2ccc(Cl)nc2[nH]1 target_or_system="MetRS (T. brucei) (Trypanosoma brucei brucei, UniProt Q38C91)" observed_property="log10 of IC50" endpoint_value=1.11
compound=CC(=O)N(Cc1cc(Cl)cc(Cl)c1)[C@@H]1CCC[C@H](c2nc3nc(F)ccc3[nH]2)C1 target_or_system="MetRS (T. brucei) (Trypanosoma brucei brucei, UniProt Q38C91)" observed_property="log10 of IC50" endpoint_value=2.71
compound=Fc1ccc2[nH]c(N3CCC[C@H](NCc4cc(Cl)cc(Cl)c4)C3)nc2n1 target_or_system="MetRS (T. brucei) (Trypanosoma brucei brucei, UniProt Q38C91)" observed_property="log10 of IC50" endpoint_value=1.43
compound=O=C(CCNCc1cc(Cl)cc(Cl)c1)Nc1nc2ncccc2[nH]1 target_or_system="MetRS (T. brucei) (Trypanosoma brucei brucei, UniProt Q38C91)" observed_property="log10 of IC50" endpoint_value=2.04
compound="CC(Cc1nc2cc(F)c(Cl)cc2[nH]1)NCc1cc(Cl)cc(Cl)c1 (stereo not drawn)" target_or_system="MetRS (T. brucei) (Trypanosoma brucei brucei, UniProt Q38C91)" observed_property="log10 of IC50" endpoint_value=2.20
compound=CCCOc1c(Cl)cc(Cl)cc1CN[C@H]1CCCN(c2nc3nc(Cl)ccc3[nH]2)C1 target_or_system="MetRS (T. brucei) (Trypanosoma brucei brucei, UniProt Q38C91)" observed_property="log10 of IC50" endpoint_value=1.67
compound=Oc1c(Cl)cc(Cl)cc1CN[C@H]1CCCN(c2nc3nc(Cl)ccc3[nH]2)C1 target_or_system="MetRS (T. brucei) (Trypanosoma brucei brucei, UniProt Q38C91)" observed_property="log10 of IC50" endpoint_value=1.40
compound=Fc1ccc2nc(NCCCN[C@@H]3CCOc4c(Cl)cc(Cl)cc43)[nH]c2n1 target_or_system="MetRS (T. brucei) (Trypanosoma brucei brucei, UniProt Q38C91)" observed_property="log10 of IC50" endpoint_value=0.90
compound=Clc1cc(Br)cc(CN[C@H]2CCCN(c3nc4nc(Cl)ccc4[nH]3)C2)c1 target_or_system="MetRS (T. brucei) (Trypanosoma brucei brucei, UniProt Q38C91)" observed_property="log10 of IC50" endpoint_value=0.90
compound=CC(=O)N(CCCc1nc2nc(F)ccc2[nH]1)Cc1cc(Cl)cc(Cl)c1 target_or_system="MetRS (T. brucei) (Trypanosoma brucei brucei, UniProt Q38C91)" observed_property="log10 of IC50" endpoint_value=1.36
compound=COc1ccc(Oc2nc(NCc3nc4ccc(F)nc4[nH]3)nc(Oc3ccc(OC)cc3Cl)n2)c(Cl)c1 target_or_system="MetRS (T. brucei) (Trypanosoma brucei brucei, UniProt Q38C91)" observed_property="log10 of IC50" endpoint_value=1.38
compound=COc1ccc(Oc2cccc(NCc3nc4ccccc4[nH]3)c2)c(Cl)c1 target_or_system="MetRS (T. brucei) (Trypanosoma brucei brucei, UniProt Q38C91)" observed_property="log10 of IC50" endpoint_value=2.44
compound=COc1ccc(Oc2ccnc(NCc3nc4ccc(F)nc4[nH]3)c2)c(Cl)c1 target_or_system="MetRS (T. brucei) (Trypanosoma brucei brucei, UniProt Q38C91)" observed_property="log10 of IC50" endpoint_value=1.32
compound=Clc1cc(Cl)cc(CN2CCC[C@H](c3nc4nc(Cl)ccc4[nH]3)C2)c1 target_or_system="MetRS (T. brucei) (Trypanosoma brucei brucei, UniProt Q38C91)" observed_property="log10 of IC50" endpoint_value=1.89
